test: soluble on expression in E. coli; label from the status in PepcDB or PDB records

{"seqText": "MGSDKIHHHHHHMSLLINLSFAPLQPTGWLTYSLNLLPHIKYLGVNVLSPREIPEVKVYQSPTNITTECGIKGHFQRLMWVQFKLPSFYKKLKSQLLFSPIPEVPLFSRCRSIVTIHDLIPLRFPQEFSAAQLFYCRNYLPAVIKQSEHIICNSLSTAHDIQNFLGVPEKKITITSLAIDTENFKFLDLPKKNYFLYYGRHNIYKNLNRIIAAFAALPNKDYELWLAGPNDARYTPTLQAQVEELGITHRVKFLDYVSYSELPVIINQAIALVFPSLWEGFGFPVLEALACGTPVITSNLSSLPEVAGDAAILINPYNTAEITDAMQNIANDVKLQSHLSTQGIARANQFSWERTGKATSEVLSRYL", "soluble on expression in E. coli": "not soluble"}
{"seqText": "MGSDKIHHHHHHMALEVVLWDFDGVIFDSMHLKNEGFRALFQKHGNKNQESLKQFEVYHYQSGGISRNEKIQYFYNEILKTPIAQEEVDALALEFGTIIEQKLFDREHLNSEVMAFIDKHYKNHVFHIASAALHSELQVLCEFLGIIKYFKSVEGSPPNKPKIIANIIQKYAYNPGRMLMIGDSVNDYESAQANEVAFLGYNSKVLKNLVGQNGYQGKYLESFKGFDLQNFIKE", "soluble on expression in E. coli": "not soluble"}
{"seqText": "MGHHHHHHSHMAVEDEGLRVFQSVKIKIGEAKNLPSYPGPSKMRDCYCTVNLDQEEVFRTKIVEKSLCPFYGEDFYCEIPRSFRHLSFYIFDRDVFRRDSIIGKVAIQKEDLQKYHNRDTWFQLQHVDADSEVQGKVHLELRLSEVITDTGVVCHKLATRIVECQGLPIVNGQCDPYATVTLAGPFRSEAKKTKV", "soluble on expression in E. coli": "not soluble"}
{"seqText": "MRGSHHHHHHTDPALRAQTQVLFEHPLNEKMRTWLRIEFLIQQLTVNLPIVDHAGALHFFRNVSELLDVFERGEVRTELLKELDRQQRKLQTWIGVPGVDQSRIEALIQQLKAAGSVLISAPRIGQFLREDRLIALVRQRLSIPGGCCSFDLPTLHIWLHLPQAQRDSQVETWIASLNPLTQALTMVLDLIRQSAPFRKQTSLNGFYQDNGGDADLLRLNLSLDSQLYPQISGHKSRFAIRFMPLDTENGQVPERLDFELACCGLCGR", "soluble on expression in E. coli": "soluble"}
{"seqText": "MSEEGFMLAVLKGIPLIQDIRAEGNSRSWIMTIDGHPARGEIFSEAFSISLFLNDLESLPKPCLAYVTLLLAAHPDVHDYAIQLTADGGWLNGYYTTSSSSELIAIEIEKHLALTCILKNVIRNHHKLYSGGV", "soluble on expression in E. coli": "not soluble"}
{"seqText": "MDVDLAAPMSESEKLLYRSNLLGSDKRITNYGGGNTSAKVIETDPLTGEPAEVLWVKGSGGDVGSIRMDGFATLYMDKLNALRGIYRGGEHEDEMVAFLRHCTFNLNPRAASIDTPLHAYVPAKHVDHMHPDAIIAIAAAKDSKKLTQEIFGDRIGWLPWKRPGYELGLWLSDFCEKNPDAKGVVLESHGLFTWADDARECYERTLEIIQTAMDWFAEQTAGKPAFGGALEHHHHHH", "soluble on expression in E. coli": "not soluble"}
{"seqText": "MAHHHHHHMKKKVELKFLGGLESYLEDKSKNVVTLEIESEKLSFENLIAYIRNHILVDRKDVFADHVLCDGTEFCQVVVDHVERKNYNLNEKAKIKPGIIVLINEYDWEIMHMYEYQIRDGDKLCFLSTLHGG", "soluble on expression in E. coli": "not soluble"}
{"seqText": "MSLNVIDLFSGVGGLSLGAARAGFDVKMAVEIDQHAINTHAINFPRSLHVQEDVSLLNAEIIKGFFKNDMPIDGIIGGPPCQGFSSIGKGNPDDSRNQLYMHFYRLVSELQPLFFLAENVPGIMQEKYSGIRNKAFNLVSGDYDILDPIKVKASDYGAPTIRTRYFFIGVKKSLKLDISDEVFMPKMIDPVTVKDALYGLPDIIDANWQSDSESWRTIKKDRKGGFYEKLWGQIPRNVGDTESIAKLKNNIISGCTGTLHSKIVQERYASLSFGETDKISRSTRLDPNGFCPTLRAGTARDKGSFQAVRPIHPYHPRVITPREAARLQGFPDWFRFHVTKWHSFRQIGNSVSPIVAEYILKGLYNLLNKRVQPEYLNHNSLEVREGHHHHHH", "soluble on expression in E. coli": "soluble"}
{"seqText": "MRIVQATLEHLDLLAPLFVKYREFYGMLSYPESSRKFLEKRLRRKESVIYLALADEEDRLLGFCQLYPSFSSLSLKRVWILNDIYVAEEARRQLVADHLLQHAKQMARETHAVRMRVSTSVDNEVAQKVYESIGFREDQEFKNYTLPISDELS", "soluble on expression in E. coli": "soluble"}
{"seqText": "GMSSSDRYMQRGVSSQKEDVHKAIKSIDKGIYPRAFCKIIPDILGGDPEYCNIMHADGAGTKSSLAYVYWKETGDISVWKGIAQDAVIMNIDDLICVGAVDNILLSSTIGRNKNLIPGEVLAAIINGTEEVLQMLRDNGIGIYSTGGETADVGDLVRTIIVDSTVTCRMKRQDVISNENIKAGNVIVGFASYGQTSYETEYNGGMGSNGLTSARHDVFNNVLASKYPESFDPKVPENLVYSGEMNLTDPYLNVPLDAGKLVLSPTRTYAPLMKEIIHQYKGKLDGVVHCSGGGQTKVLHFTDATTHIIKDNLFDVPPLFQLIQGQSNTPWEEMYKVFNMGHRLEIYTDAAHAEGMIAIAKKFNIEAKIIGRVEAPVAGKRLTITGPQGTEYTYA", "soluble on expression in E. coli": "soluble"}
{"seqText": "MGSDKIHHHHHHMMTDARTTAEGGMETSYGFHKVDEGKKQGLVNEVFHKVAKRYDIMNDVMSAGLHRLWKDAMVSALSPRKDPSYKILDVAGGTGDVAFRIIEASNRLAHATVLDINGSMLAVGEERAAKKKLSDNLTFVEANAEELPFEANTFDAYTVAFGIRNVPRIDVALKEAYRVLKRGGRLLVLEFSEVDMPLLDRVYDAWSFNAIPQFGKMITGDAEPYQYLVESIRKFPNQEDFATMIRTAGFSRVTYTNYTGGIAALHSGWKL", "soluble on expression in E. coli": "not soluble"}
